B1: scFv; the commonest letter at each place (parent)
chain 1: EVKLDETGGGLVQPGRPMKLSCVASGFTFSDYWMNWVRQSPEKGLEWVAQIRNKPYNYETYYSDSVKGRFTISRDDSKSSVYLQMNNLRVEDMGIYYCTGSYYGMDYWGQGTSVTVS
chain 2: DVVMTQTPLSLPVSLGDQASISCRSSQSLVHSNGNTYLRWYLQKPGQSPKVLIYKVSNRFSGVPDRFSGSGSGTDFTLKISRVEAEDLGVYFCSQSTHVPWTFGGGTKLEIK

# Variants of: B1
# assaySummary: Kd (Tite-Seq)
# testParameters: with fluorescein; format: scFv 4-4-20, heavy + light
valueKind: Kd

Here's what some known entries look like.
Exam item: Which Kd is listed for chain 1 W33S W36L ?
Marked response: ≥ 10 µM

Exam item: Look at this variant and give its reported Kd. chain 1 G104A M105E
Marked response: ≥ 10 µM

Exam item: Looking for the measured Kd of chain 1 D31M Y32N , can you help?
Marked response: ≥ 10 µM

Exam item: Can you share its Kd? I mean this variant: chain 1 T28R D31L W33I
Marked response: ≥ 10 µM

Exam item: Quick one: Kd for chain 1 S101C M105Y Y107T ?
Marked response: ≥ 10 µM

Next:
Exam item: For the variant shown here, chain 1 G104N D106W , give the reported Kd.
Marked response: ≥ 10 µM

Exam item: Dear colleague, I am looking for the recorded Kd of the following variant: chain 1 W33E V37T
Marked response: ≥ 10 µM

Exam item: Fill in the blank: the reported Kd of chain 1 G104S Y107K is ____.
Marked response: ≥ 10 µM

Exam item: Kd lookup needed for chain 1 S101L Y103Q , thanks.
Marked response: ≥ 10 µM

Exam item: Given chain 1 D31I W36E , state its recorded Kd.
Marked response: ≥ 10 µM

Exam item: Look up Kd for this variant: chain 1 G100S Y102T
Marked response: 0.0233 µM
